test system: RD; assay: relative viability vs DMSO control (72 h) (fraction); higher = more viable cells; details: 0.3704 µM
Provide the recorded relative viability for the entries that follow.
The answer should be written as a number, with no unit following it.

Prompt line: Entry CC(C)(C)c1cc(NC(=O)Nc2ccc(-c3cn4c(n3)sc3cc(OCCN5CCOCC5)ccc34)cc2)no1 [Quizartinib] has what relative viability?
Response line: 1.05

Prompt line: Entry Cc1ccc(F)c(NC(=O)Nc2ccc(-c3cccc4[nH]nc(N)c34)cc2)c1 [Linifanib] has what relative viability?
Response line: 1.14

Prompt line: Entry Cn1cc(-c2cc3c(N4CCN(c5ncc([C@@](C)(N)c6ccc(F)cc6)cn5)CC4)ncnn3c2)cn1 [Avapritinib] has what relative viability?
Response line: 1.06

Prompt line: Entry CO[C@H]1C[C@@H]2CC[C@@H](C)[C@@](O)(O2)C(=O)C(=O)N2CCCC[C@H]2C(=O)O[C@H]([C@H](C)C[C@@H]2CC[C@@H](OP(C)(C)=O)[C@H](OC)C2)CC(=O)[C@H](C)/C=C(\C)[C@@H](O)[C@@H](OC)C(=O)[C@H](C)C[C@H](C)/C=C/C=C/C=C/1C [Ridaforolimus] has what relative viability?
Response line: 0.71

Prompt line: Entry Cc1nc(-c2cn3c(n2)-c2ccc(-c4cnn(C(C)(C)C(N)=O)c4)cc2OCC3)n(C(C)C)n1 [Taselisib] has what relative viability?
Response line: 0.524

Prompt line: Entry C[C@@H](c1ccc2nccn2c1)n1nnc2ncc(-c3cnn(C)c3)nc21 [Volitinib] has what relative viability?
Response line: 1.14

====

test system: RD; experiment: relative viability vs DMSO control (72 h) (fraction); higher = more viable cells; conditions: 1.111 µM
Exam item: assign yes to entries whose relative viability is below 0.7 and no to entries at or above 0.7. Note that a value of exactly 0.7 receives no.

Prompt line: Decide: relative viability of `C[C@@H](c1ccc2nccn2c1)n1nnc2ncc(-c3cnn(C)c3)nc21` strictly below 0.7?
Response line: no

Prompt line: Decide: relative viability of `C[C@@H]1COCCN1c1cc(-c2ccnn2C)c2ccnc(-c3ccn[nH]3)c2n1` strictly below 0.7?
Response line: yes

Prompt line: Decide: relative viability of `COCc1c(-c2cc3cc(C)cc(OC)c3s2)c2c(N)ncnn2c1CN1CCNC(=O)C1` strictly below 0.7?
Response line: no

Prompt line: Decide: relative viability of `CCc1cc2c(cc1N1CCC(N3CCOCC3)CC1)C(C)(C)c1[nH]c3cc(C#N)ccc3c1C2=O` strictly below 0.7?
Response line: no

Prompt line: Decide: relative viability of `C=CC(=O)Nc1cccc(Oc2nc(Nc3ccc(N4CCN(C)CC4)cc3)nc3ccsc23)c1` strictly below 0.7?
Response line: no

Prompt line: Decide: relative viability of `Cn1cnc2c(F)c(Nc3ccc(Br)cc3F)c(C(=O)NOCCO)cc21` strictly below 0.7?
Response line: yes

Prompt line: Decide: relative viability of `O=C(Cc1ccc(-c2ccc(OCCN3CCOCC3)cc2)cn1)NCc1ccccc1` strictly below 0.7?
Response line: yes

====

test system: G401; test: relative viability vs DMSO control (72 h) (fraction); higher = more viable cells; details: 3.333 µM
Exam item: assign Fulfilled to entries whose relative viability is below 0.6 and Not fulfilled to entries at or above 0.6. Note that a value of exactly 0.6 receives Not fulfilled.

Prompt line: Decide: relative viability of `C[C@]1(O)C[C@@H](c2nc(-c3ccc4ccc(-c5ccccc5)nc4c3)c3c(N)nccn32)C1` strictly below 0.6?
Response line: Fulfilled

Prompt line: Decide: relative viability of `CC1(C)CNc2cc(NC(=O)c3cccnc3NCc3ccncc3)ccc21` strictly below 0.6?
Response line: Not fulfilled

Prompt line: Decide: relative viability of `CCCS(=O)(=O)Nc1ccc(F)c(C(=O)c2c[nH]c3ncc(-c4ccc(Cl)cc4)cc23)c1F` strictly below 0.6?
Response line: Not fulfilled

Prompt line: Decide: relative viability of `COc1cc2c(Oc3ccc4[nH]c(C)cc4c3F)ncnc2cc1OCCCN1CCCC1` strictly below 0.6?
Response line: Fulfilled

Prompt line: Decide: relative viability of `O=C(Cc1ccc(-c2ccc(OCCN3CCOCC3)cc2)cn1)NCc1ccccc1` strictly below 0.6?
Response line: Fulfilled

Prompt line: Decide: relative viability of `COc1cc2nccc(Oc3ccc(NC(=O)Nc4cc(C)on4)c(Cl)c3)c2cc1OC` strictly below 0.6?
Response line: Not fulfilled

Prompt line: Decide: relative viability of `C[C@@H]1CCN(C(=O)CC#N)C[C@@H]1N(C)c1ncnc2[nH]ccc12` strictly below 0.6?
Response line: Not fulfilled

====

Provide the recorded relative viability for the entries that follow.
system: KHOS-240S; experiment: relative viability vs DMSO control (72 h) (fraction); higher = more viable cells; settings: 0.00457 µM
The answer should be written as a number, with no unit following it.

Prompt line: Entry `CC(=O)Nc1cccc(-n2c(=O)n(C3CC3)c(=O)c3c(Nc4ccc(I)cc4F)n(C)c(=O)c(C)c32)c1` has what relative viability?
Response line: 1.02

Prompt line: Entry `CCc1cc2c(cc1N1CCC(N3CCOCC3)CC1)C(C)(C)c1[nH]c3cc(C#N)ccc3c1C2=O` has what relative viability?
Response line: 1.08

Prompt line: Entry `CO[C@H]1C[C@@H]2CC[C@@H](C)[C@@](O)(O2)C(=O)C(=O)N2CCCC[C@H]2C(=O)O[C@H]([C@H](C)C[C@@H]2CC[C@@H](OP(C)(C)=O)[C@H](OC)C2)CC(=O)[C@H](C)/C=C(\C)[C@@H](O)[C@@H](OC)C(=O)[C@H](C)C[C@H](C)/C=C/C=C/C=C/1C` has what relative viability?
Response line: 0.932

Prompt line: Entry `O=C(Cc1ccc(-c2ccc(OCCN3CCOCC3)cc2)cn1)NCc1ccccc1` has what relative viability?
Response line: 1.07

Prompt line: Entry `Cc1cnc(Nc2ccc(OCCN3CCCC3)cc2)nc1Nc1cccc(S(=O)(=O)NC(C)(C)C)c1` has what relative viability?
Response line: 1.06

Prompt line: Entry `COc1cc2c(Oc3ccc4[nH]c(C)cc4c3F)ncnc2cc1OCCCN1CCCC1` has what relative viability?
Response line: 1.07

Prompt line: Entry `Cc1ccc(F)c(NC(=O)Nc2ccc(-c3cccc4[nH]nc(N)c34)cc2)c1` has what relative viability?
Response line: 1.07

====

test system: G401; experiment: relative viability vs DMSO control (72 h) (fraction); higher = more viable cells; settings: 0.1235 µM
Counter-ions that a name gives are not always drawn.
Provide the recorded relative viability for the entries that follow.
The answer should be written as a number, with no unit following it.

Prompt line: Entry `Nc1cc(C(F)(F)F)c(-c2cc(N3CCOCC3)nc(N3CCOCC3)n2)cn1` has what relative viability?
Response line: 0.86

Prompt line: Entry `CN1CCC(COc2cnc(-c3cccc(Cn4nc(-c5cccc(C#N)c5)ccc4=O)c3)nc2)CC1` has what relative viability?
Response line: 1.02

Prompt line: Entry `C[C@@H](c1ccc2nccn2c1)n1nnc2ncc(-c3cnn(C)c3)nc21` has what relative viability?
Response line: 1.03

Prompt line: Entry `CC(=O)Nc1cccc(-n2c(=O)n(C3CC3)c(=O)c3c(Nc4ccc(I)cc4F)n(C)c(=O)c(C)c32)c1` has what relative viability?
Response line: 0.627

Prompt line: Entry `Cc1cc(Nc2ncnc3ccc(NC4=NC(C)(C)CO4)cc23)ccc1Oc1ccn2ncnc2c1` has what relative viability?
Response line: 1.02

Prompt line: Entry CC(C)NC(=O)C1CCC(n2c(NC(=O)c3ccc(F)cc3)nc3ccc(CN4CCC(C(C)(C)O)CC4)cc32)CC1 (centres undefined) has what relative viability?
Response line: 0.974

Prompt line: Entry `CNC(=O)c1ccc(-c2cnc3ncc(Cc4ccc5ncccc5c4)n3n2)cc1F` has what relative viability?
Response line: 0.971

Prompt line: Entry `CCN1CCN(Cc2ccc(Nc3ncc(F)c(-c4cc(F)c5nc(C)n(C(C)C)c5c4)n3)nc2)CC1` has what relative viability?
Response line: 0.796

Prompt line: Entry `C[C@@H]1COCCN1c1cc(-c2ccnn2C)c2ccnc(-c3ccn[nH]3)c2n1` has what relative viability?
Response line: 0.803

Prompt line: Entry `O=C(Cc1ccc(-c2ccc(OCCN3CCOCC3)cc2)cn1)NCc1ccccc1` has what relative viability?
Response line: 0.555

Prompt line: Entry `CNC(=O)c1cc(Oc2ccc(NC(=O)Nc3ccc(Cl)c(C(F)(F)F)c3)c(F)c2)ccn1` has what relative viability?
Response line: 1.02

Prompt line: Entry COc1cccc2c1C(=O)c1c(O)c3c(c(O)c1C2=O)C[C@@](O)(C(=O)CO)C[C@@H]3O[C@H]1C[C@H](N)[C@H](O)[C@H](C)O1 [Doxorubicin Hydrochloride] has what relative viability?
Response line: 0.476

Prompt line: Entry `CO[C@H]1C[C@@H]2CC[C@@H](C)[C@@](O)(O2)C(=O)C(=O)N2CCCC[C@H]2C(=O)O[C@H]([C@H](C)C[C@@H]2CC[C@@H](OP(C)(C)=O)[C@H](OC)C2)CC(=O)[C@H](C)/C=C(\C)[C@@H](O)[C@@H](OC)C(=O)[C@H](C)C[C@H](C)/C=C/C=C/C=C/1C` has what relative viability?
Response line: 0.744

Prompt line: Entry `Cc1ccc(NC(=O)c2ccc(CN3CCN(C)CC3)cc2)cc1Nc1nc(-c2cccnc2)cs1` has what relative viability?
Response line: 0.931
